Values were extracted from the supplement of paper PMC10567573.

B1: KRT15 (parent)
chain: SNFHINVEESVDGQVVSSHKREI

# Variants of: B1
# Test Description: protein stability index of a GFP-peptide fusion (GPS, HEK-293T) (PSI 1-6); higher = more stable;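 note: lentivirally expressed fusions sorted by FACS into six bins by GFP to DsRed ratio, PSI derived from sequencing read proportions per bin multiplied by bin number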
# Condition Info: c terminus: native
Endpoint Label: protein stability index
Respond using a number only.

Reference set, count: 10
> print(dat)
                        seq.string  meas.value
 1  SNFHINVEESVDGQVVSSHKSEI [R21S]        5.13
 2  SNFHINVEESVDGQVVSSHKREQ [I23Q]        4.43
 3   SNFHINVPESVDGQVVSSHKREI [E8P]        2.47
 4   SNFVINVEESVDGQVVSSHKREI [H4V]        1.03
 5  SNFHINVEESVDGQVVSKHKREI [S18K]        2.06
 6   SNFHINDEESVDGQVVSSHKREI [V7D]        2.01
 7  SNFHINVEESVTGQVVSSHKREI [D12T]        2.21
 8  SNFHINVEESVDGQVVYSHKREI [S17Y]        2.27
 9   SYFHINVEESVDGQVVSSHKREI [N2Y]        1.68
10   SNFHIPVEESVDGQVVSSHKREI [N6P]         1.9

// next item, protein stability index requested
Specify measured protein stability index for SNFHSNVEESVDGQVVSSHKREI [I5S] .
3.06
